# System: MS2 coat protein
# Experiment summary: apparent KD of MS2 coat protein; higher = weaker reporter binding
# Condition summary: Eterna round: R107; input ligand: arginine 13.2 mM
We'd kindly ask you to apply these apparent KD of MS2 coat protein classes: LOW: < 20 nM; MEDIUM: ≥ 20 nM and < 50 nM; HIGH: ≥ 50 nM

Reference set, count: 3
[[record]]
seq_text = "GGGUGGUAGGCGGCCGCCACUGAUUUUUAUUUAUAGAUGACAUGAGGAUCACCCAUGUUUAUAUGCAGGACCGGGCCUGUUGUGG [aaaQ]"
class_label = "LOW"

[[record]]
seq_text = "ACGUCAUGGAGAACGUGACGACUUGUCGAUACCAGUGUUUGAUAGCGCCCUUGGCAGCGAACAUGAGGAUCACCCAUGUCAAGGG [#11 SameState-TheophyllineA]"
class_label = "HIGH"

[[record]]
seq_text = "UCGGGUUUGCGAAGGAGCGGGUAUGUUUUCUAGUGGAUCCUAACAUGAGGAUCACCCAUGUCCCAGGUAGGUCGCGCGGGUUUGG [12.W]"
class_label = "HIGH"


In: Assign a bin to UAACAUGAGGAUCACCCAUGUAUACUAAGUCGAGGACCGGUACGGCCGCCACUCGAACUUCAAGAAUAGGCGGUAAAUGUAAGUA [JR_ExcTryptoA_Sub020]
Out: LOW

Recorded values, source the supplement of paper PMC9170038.
